Target or system Mast/stem cell growth factor receptor Kit (Homo sapiens, UniProt P10721); metric IC50; compiled from varied reports.

{"columns": ["COMPOUND", "OBSERVED"],
 "data": [
  ["O=C(c1c(F)ccc(NS(=O)(=O)c2ccc3ncsc3c2)c1F)c1c[nH]c2ncc(Cl)cc12", "≤ 10 µM"]
]}

q: Param readout = IC50; param system = Mast/stem cell growth factor receptor Kit (Homo sapiens, UniProt P10721); param query = "Brc1ccc(/C=C\c2c[nH]c3ncccc23)cc1" ; response: value
a: ≤ 10 µM

q: Can you look up IC50 on Mast/stem cell growth factor receptor Kit (Homo sapiens, UniProt P10721) for CCCC(C)S(=O)(=O)Nc1ccc(F)c(C(=O)c2c[nH]c3ncc(OC)cc23)c1F (stereo not drawn) ?
a: ≤ 10 µM

q: IC50 of "Cn1cc(-c2cc(Oc3ccc(NC(=O)Nc4cc(C(C)(C)C)no4)c(F)c3)ccn2)cn1" on Mast/stem cell growth factor receptor Kit (Homo sapiens, UniProt P10721)?
a: < 0.1 µM

q: Lookup: IC50 / Mast/stem cell growth factor receptor Kit (Homo sapiens, UniProt P10721) / "C[C@H]1CN(c2cncnc2)Cc2cc(C(=O)Nc3cc(CN4CCN(C)CC4)cc(C(F)(F)F)c3)ccc21"
a: > 10 µM

q: Give recorded IC50 with Mast/stem cell growth factor receptor Kit (Homo sapiens, UniProt P10721) for the following compound: "N#Cc1cnc2[nH]cc(C(=O)c3cccc(NS(=O)(=O)c4cc(F)ccc4F)c3F)c2c1"
a: ≤ 10 µM

q: Reported IC50 for Mast/stem cell growth factor receptor Kit (Homo sapiens, UniProt P10721), given "COc1cc(F)cc(CNc2ccc(Cc3c[nH]c4ncncc34)c(F)n2)c1" ?
a: ≤ 10 µM

q: For the record "Cc1oc(C(C)(C)C)cc1NC(=O)Nc1ccc(Oc2ccnc(-c3cnn(C)c3)c2)cc1F" , what value of IC50 is listed for Mast/stem cell growth factor receptor Kit (Homo sapiens, UniProt P10721)?
a: < 0.1 µM

q: What IC50 appears in the records for this compound with Mast/stem cell growth factor receptor Kit (Homo sapiens, UniProt P10721)? "CCOc1ccc(Nc2ccc(C(=O)c3c[nH]c4ncnc(OC)c34)c(F)n2)cn1"
a: < 1 µM

* * *

// cross-study collection: IC50 for Mast/stem cell growth factor receptor Kit (Homo sapiens)

{"columns": ["SMILES_TEXT", "IC50"],
 "data": [
  ["COc1cnc2[nH]cc(C(=O)c3cccc(NS(=O)(=O)c4cccnc4)c3)c2c1", "≤ 10 µM"],
  ["CS(=O)(=O)Nc1cccc(Nc2c[nH]c3ncccc23)c1", "≤ 10 µM"],
  ["O=C(c1c(F)ccc(NS(=O)(=O)c2cccc(C(F)(F)F)c2)c1F)c1c[nH]c2ncc(Cl)cc12", "≤ 10 µM"]
]}

q: Looking for the measured IC50 of "CCCCS(=O)(=O)Nc1ccc(F)c(C(=O)c2c[nH]c3ncc(Cl)cc23)c1" , can you help?
a: ≤ 10 µM

q: # lookup: IC50 of "Fc1cc(Cl)cc(CNc2ccc(Cc3c[nH]c4ncncc34)c(F)n2)c1"
a: ≤ 10 µM

q: Name the reported IC50 value associated with the compound "Cc1cnc2[nH]cc(Cc3cnc(Nc4ccc(F)cc4)nc3)c2c1"
a: < 0.1 µM

q: // IC50 lookup, key: "Cc1nc(Nc2ncc(C(=O)Nc3c(C)cccc3Cl)s2)cc(N2CCN(CCCCCC(=O)NO)CC2)n1"
a: < 0.1 µM

q: Any idea what its IC50 is? The compound is "Nc1ncnc2c1c(-c1cccc(OC[C@@H]3CCCO3)c1F)cn2[C@H]1C[C@@H](CN2CC[S+]([O-])CC2)C1"
a: 0.77 µM

q: Suppose we examine the compound "Clc1ccc(Cc2c[nH]c3ncc(Oc4ccccc4)cc23)c(Cl)c1" ; what IC50 value has been reported?
a: ≤ 10 µM

q: State the recorded IC50 for this entry: "CCNc1ncnc2[nH]cc(C(=O)c3ccc(Nc4ccc(C5CC5)nc4)nc3F)c12"
a: < 0.1 µM

q: Which IC50 reading was recorded for the compound "CCCCNC(=O)Nc1cccc(Cc2c[nH]c3ncc(-c4cccnc4)cc23)c1" ?
a: ≤ 10 µM
